Biological target: T1, 4H310-AA
T1 chain: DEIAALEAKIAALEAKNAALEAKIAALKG
Experiment: two-hybrid library CCmax;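 note: natural log of median RNA to DNA barcode read ratio; higher means stronger binding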
Conditions: mean of both orientations
readoutKind: interaction score
Enter the number alone.

Answer with reported interaction score of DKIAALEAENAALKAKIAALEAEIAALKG [4H2274-AA]
-1.25

Answer with reported interaction score of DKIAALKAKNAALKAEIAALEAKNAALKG [4H3016-AA]
-0.901

Answer with reported interaction score of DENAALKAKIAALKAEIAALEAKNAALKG [4H1864-AA]
-1.48
